Molecular target: T1, human APJ receptor (human, UniProt P35414 1-380)
T1 sequence (looked up): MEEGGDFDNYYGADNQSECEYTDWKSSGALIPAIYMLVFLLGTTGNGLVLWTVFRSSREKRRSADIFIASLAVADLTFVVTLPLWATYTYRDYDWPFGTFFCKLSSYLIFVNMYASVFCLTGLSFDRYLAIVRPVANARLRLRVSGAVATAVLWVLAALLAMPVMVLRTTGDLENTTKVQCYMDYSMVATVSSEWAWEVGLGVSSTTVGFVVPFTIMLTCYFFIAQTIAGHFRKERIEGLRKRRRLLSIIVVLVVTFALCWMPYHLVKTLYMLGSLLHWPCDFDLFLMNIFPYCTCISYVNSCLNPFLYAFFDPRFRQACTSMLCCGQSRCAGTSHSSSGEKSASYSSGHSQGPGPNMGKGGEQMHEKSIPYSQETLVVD
Experiment: cell-based or functional assay
Starred links: 1 amine or outer side, 2 acyl side, 3 side chain; linkers in the order of their positions; H or OH if unused. Non-standard residues stand in square brackets, D forms with d. Primed or numbered codes have the meaning given here. *: point of attachment. AC4Abu = α-carboxy-4-aminobutyric acid, O=C(C(CCN[*:1])C(=O)[*:3])[*:2]; Phe(4-Cl) = N[C@@H](Cc1ccc(Cl)cc1)C(=O)O; NMeR = CN[C@@H](CCCNC(=N)N)C(=O)O; Palmitoyl = CCCCCCCCCCCCCCCC(=O)*; β3hF = N[C@H](CC(=O)O)Cc1ccccc1; Cha = N[C@@H](CC1CCCCC1)C(=O)O; Nle = CCCC[C@H](N)C(=O)O; Pip′ = not defined here; AEEA = NCCOCCOCC(=O)O; Aib = CC(C)(N)C(=O)O; Nip = nipecotic acid
Measurement kind: EC50 Human APJ Receptor (nM)
Write down the numeric answer in nM and omit the unit.

[
  {
    "Binder": "Palmitoyl-[AC4Abu][AEEA][AEEA][dQ]RP[NMeR][Cha]SHKG[Nip][Nle][Aib][Phe(4-Cl)]-OH [SEQ ID NO: 582]",
    "EC50 Human APJ Receptor / nM": 8.5
  },
  {
    "Binder": "QRPRLSHKGPXPF ({H2}[MerPr](10K mPEG acetamide)Q[hArg]P[NMeArg][aMeLeu]SHKGP[Nle]P[4-Cl-F]{COOH}) [SEQ ID NO: 112]",
    "EC50 Human APJ Receptor / nM": 2.32
  }
]

Shift focus to the following entry.
Item Palmitoyl-[AC4Abu][AEEA][AEEA][dQ]RP[NMeR][Cha]SHKG[Pip′][Nle]P[β3hF]-OH [SEQ ID NO: 647] has what recorded EC50 Human APJ Receptor?
1.58
